Assay: acute toxicity in the mouse, orally and intravenously
Conditions: in vivo, iv, intravenously
Experimental: As already stated, the compounds according to the invention show a marked antiplatelet aggregation activity. Moreover, their toxicity is very low. For example, the acute toxicity of the salt above referred by LM-PT bisulfate, was evaluated in the mouse orally and intravenously. The LD50 were about 400 mg/kg and about 100 mg/kg, respectively. The DPPV (disaggregating power percentage value) was evaluated for LM-PT bisulfate, by the ADP induced aggregation test ex vivo in the rat, orally. […]
recorded metric: LD50

Query :: # query: LD50 of entry Cn1cnc2c1c(=O)n(CCCCC(=O)CN1CCc3sccc3C1)c(=O)n2C [LM-PT bisulfate]
Result :: ~100 mg/kg
